test: blockers of serum C3 deposition on LPS – biochemical, ELISA, human serum, orthogonally pooled compounds, primary screen (AID 1235); conditions: Human serum alternative complement pathway, LPS-coated ELISA, tested in compound mixtures, at 5 µM, stronger effect = higher value
The campaign covered roughly 62,000 compounds. About 50 (0.08%) were called active. The sample holds actives, similar compounds and a random draw of the others, so the mix is not that of the screen.
Record True whenever inhibition is at 10% or higher; record False when lower.

Below, 5 molecules whose answers are already recorded.
>>> df
                                   molecule  group
0             COc1ccc(-c2nc3n(c2Br)CCC3)cc1  False
1  Cc1ccc(-c2csc3nnc(SCC(=O)NCc4ccco4)n23)cc1  False
2            Cc1ccccc1CSc1nnc(-c2ccccn2)n1N   True
3  O=C(NCCCN1CCN(c2ccccc2F)CC1)C1CCC(=O)N1C1CCCCC1 (stereo not given)  False
4  CSc1nnc2c(n1)OC(c1cn(C)c3ccccc13)N(C(C)=O)c1ccccc1-2 (stereo not given)   True

(Q) Determine whether measured inhibition meets or exceeds 10% for CC(C)OCCCNC(=O)C1CC(=O)N(C2CCCCCCC2)C1 (stereo not given)
(A) True

(Q) Also, COc1ccc(OC)c(NC(=O)CC(Cc2ccccc2OC)C(=O)O)c1 (stereo not given) please.
(A) False

(Q) Can you handle COCCN(CC(=O)Nc1ccccc1C)S(=O)(=O)c1ccc(S(=O)(=O)N2CCCC2)cc1 next?
(A) True

(Q) Please give the result for CC1CCc2c(sc(NC(=O)c3ccc(Cn4cc(Br)cn4)o3)c2C(N)=O)C1 (stereo not given) too.
(A) False

(Q) Do the same for CCNS(=O)(=O)c1ccc(NC(=O)Nc2cccc(OC)c2)cc1 please
(A) True
